test-description: chemical genetic growth profiling, strain panel (AID 1159580);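 note: tested at 20 µM; growth read once vehicle control cultures reached saturation at 30 °C; lower values mean less growth of the strain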
run-parameters: S. cerevisiae deletion strains, growth OD, locus YML032C, strain rad52
In all, about 5,500 compounds went through this assay and about 2,000 (36%) were called active. About 18% were inconclusive and are not listed. Cut-off read from the data, not from the text of the source: active = normalized growth mostly below about 0.91 (no sharp cut-off); inconclusive = no clear call, values can overlap the other calls; inactive = mostly above about 0.92. This is one part of the list.
Outcome field: choose from active, inactive

Check out these entries, answers already filled in.
COc1ccc([C@H]2Oc3c(I)c(OC)cc(OC)c3C[C@@H]2O)cc1OC; inactive
Cc1ccccc1C(OCCN(C)C)c1ccccc1 (centres undefined); inactive
COC(=O)/C=C/C(C)=C/C=C/C(C)=C/C=C/C=C(C)/C=C/C=C(C)/C=C/C(=O)O; inactive
CCN(CC)Cc1ccc(Nc2ccnc3cc(Cl)ccc23)cc1O; inactive

Attention now turns to another entry.
Given CN(C)CCN(Cc1ccccc1)c1ccccn1 , state the outcome it received in this test.
inactive
